- experimental system: Delta-type opioid receptor (Homo sapiens, UniProt P41143)
- Sequence (P41143 whole entry): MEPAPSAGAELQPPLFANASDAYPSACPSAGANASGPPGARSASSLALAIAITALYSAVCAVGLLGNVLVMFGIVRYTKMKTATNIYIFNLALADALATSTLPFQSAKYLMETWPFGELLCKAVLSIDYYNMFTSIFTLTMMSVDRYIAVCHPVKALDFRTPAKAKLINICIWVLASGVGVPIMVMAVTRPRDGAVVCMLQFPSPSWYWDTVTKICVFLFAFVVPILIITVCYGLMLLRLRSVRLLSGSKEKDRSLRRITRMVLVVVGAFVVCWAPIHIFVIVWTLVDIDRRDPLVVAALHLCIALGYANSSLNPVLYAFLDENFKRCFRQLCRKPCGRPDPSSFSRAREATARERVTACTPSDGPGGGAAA
- assay: Displacement of [3H]naltrindole from human delta-opioid receptor expressed in CHO cells after 3 hrs by scintillation counting
quantity measured: Ki
Please state the value followed by its unit.

Examples with answers:
record smiles | Ki
CO[C@@]12CCCC[C@@]13CCN(CC1CCC1)[C@@H]2Cc1ccc(O)cc13 | 8.1 nM
C=CCN1CC[C@]23c4c5ccc(OC(=O)CCCCCCCCC(=O)Oc6ccc7c(c6)[C@@]68CCCC[C@@]6(O)[C@@H](C7)N(CC6CCC6)CC8)c4O[C@H]2C(=O)CC[C@@]3(O)[C@H]1C5 | 35 nM
O=C(CCCCCCCCC(=O)Nc1nc2cc3c(cc2s1)C[C@@H]1[C@@H]2CCCC[C@]32CCN1CC1CC1)Nc1nc2cc3c(cc2s1)C[C@@H]1[C@@H]2CCCC[C@]32CCN1CC1CC1 | 170 nM
O=C(CCCCCCCCC(=O)Oc1ccc2c(c1)[C@@]13CCCC[C@@]1(O)[C@@H](C2)N(CC1CCC1)CC3)Oc1ccc2c(c1)[C@@]13CCCC[C@H]1[C@@H](C2)N(CC1CCC1)CC3 | 8 nM

Attention now shifts to the item below.
What Ki appears in the records for this compound with Delta-type opioid receptor (Homo sapiens, UniProt P41143)? `C=CCN1CC[C@]23c4c5ccc(OC(=O)CCCCCCCCC(=O)Oc6ccc7c(c6)[C@@]68CCCC[C@@]6(OC)[C@@H](C7)N(CC6CCC6)CC8)c4O[C@H]2C(=O)CC[C@@]3(O)[C@H]1C5`
39 nM

* * *

- Organism: Homo sapiens
- assay: Selectivity ratio of Ki for human kappa opioid receptor over Ki for human mu opioid receptor
# Ratio Ki annotations
Reply briefly: the number, and no unit.

So what does the record say about Ratio Ki for `O=C(/C=C/C(=O)Oc1ccc2c(c1)[C@@]13CCCC[C@H]1[C@@H](C2)N(CC1CCC1)CC3)Oc1ccc2c(c1)[C@@]13CCCC[C@H]1[C@@H](C2)N(CC1CCC1)CC3` ?
3

And for `CO[C@@]12CCCC[C@@]13CCN(CC1CCC1)[C@@H]2Cc1ccc(OC(=O)CCCCCCCCC(=O)Oc2ccc4c(c2)[C@@]25CCCC[C@@]2(OC)[C@@H](C4)N(CC2CCC2)CC5)cc13` ?
1

# repeat for `O=C(CCCCCCCCC(=O)Nc1nc2cc3c(cc2s1)C[C@@H]1[C@@H]2CCCC[C@]32CCN1CC1CC1)Nc1nc2cc3c(cc2s1)C[C@@H]1[C@@H]2CCCC[C@]32CCN1CC1CC1`
24

* * *

Below is a list of entries, each paired with its recorded Imax value.
- experimental system: Kappa-type opioid receptor (Homo sapiens, UniProt P41145)
- Sequence (P41145 whole entry): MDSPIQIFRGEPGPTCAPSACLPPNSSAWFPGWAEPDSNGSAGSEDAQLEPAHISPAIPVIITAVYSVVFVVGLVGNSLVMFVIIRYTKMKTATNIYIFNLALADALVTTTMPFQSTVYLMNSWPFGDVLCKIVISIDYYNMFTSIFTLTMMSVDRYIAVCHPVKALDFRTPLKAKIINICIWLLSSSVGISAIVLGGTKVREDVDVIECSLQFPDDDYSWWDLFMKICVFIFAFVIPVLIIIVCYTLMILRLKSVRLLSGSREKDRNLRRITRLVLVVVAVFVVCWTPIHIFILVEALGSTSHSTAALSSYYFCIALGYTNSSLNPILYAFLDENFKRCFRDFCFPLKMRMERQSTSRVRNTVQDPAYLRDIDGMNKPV
- assay: Antagonist activity at human kappa-opioid receptor expressed in CHO cells assessed as inhibition of U69593-induced [35S]GTPgammaS binding after 60 mins by scintillation counting relative to control
- Type: functional, cell-based
State the answer as a number, implicitly in %.

Here is how some molecules turned out for Imax.
record smiles | numeric readout
CO[C@@]12CCCC[C@@]13CCN(CC1CCC1)[C@@H]2Cc1ccc(O)cc13 | 37
C=CCN1CC[C@]23c4c5ccc(OC(=O)CCCCCCCCC(=O)Oc6ccc7c(c6)[C@@]68CCCC[C@@]6(OC)[C@@H](C7)N(CC6CCC6)CC8)c4O[C@H]2C(=O)CC[C@@]3(O)[C@H]1C5 | 33

Here's the next entry for you.
Lab note: need Imax for `CO[C@@]12CCCC[C@@]13CCN(CC1CCC1)[C@@H]2Cc1ccc(OC(=O)CCCCCCCCC(=O)OCc2ccccc2)cc13` on Kappa-type opioid receptor (Homo sapiens, UniProt P41145), anyone have it?
30

* * *

- experimental system: UniProtKB P35372
- assay: Agonist activity at human mu-opioid receptor expressed in CHO cells assessed as stimulation of [35S]GTPgammaS binding after 60 mins by scintillation counting
Listing of entries alongside the reported pEC50.
Remember, pEC50 is on a log scale: it is -log10 of the molar concentration.

See these solved cases before continuing.
record smiles | experimental system | pEC50
C=CCN1CC[C@]23c4c5ccc(OC(=O)CCCCCCCCC(=O)Oc6ccc7c(c6)[C@@]68CCCC[C@@]6(O)[C@@H](C7)N(CC6CCC6)CC8)c4O[C@H]2C(=O)CC[C@@]3(O)[C@H]1C5 | UniProtKB P35372 | 8.70
O=C(CCCCCCCCC(=O)Oc1ccc2c(c1)[C@@]13CCCC[C@@]1(O)[C@@H](C2)N(CC1CCC1)CC3)Oc1ccc2c(c1)[C@@]13CCCC[C@H]1[C@@H](C2)N(CC1CCC1)CC3 | UniProtKB P35372 | 8.92

--- query ---
Look up pEC50 for this compound: `CO[C@@]12CCCC[C@@]13CCN(CC1CCC1)[C@@H]2Cc1ccc(O)cc13`
8.44

* * *

- experimental system: Mu-type opioid receptor (Homo sapiens, UniProt P35372)
- Sequence (P35372 whole entry): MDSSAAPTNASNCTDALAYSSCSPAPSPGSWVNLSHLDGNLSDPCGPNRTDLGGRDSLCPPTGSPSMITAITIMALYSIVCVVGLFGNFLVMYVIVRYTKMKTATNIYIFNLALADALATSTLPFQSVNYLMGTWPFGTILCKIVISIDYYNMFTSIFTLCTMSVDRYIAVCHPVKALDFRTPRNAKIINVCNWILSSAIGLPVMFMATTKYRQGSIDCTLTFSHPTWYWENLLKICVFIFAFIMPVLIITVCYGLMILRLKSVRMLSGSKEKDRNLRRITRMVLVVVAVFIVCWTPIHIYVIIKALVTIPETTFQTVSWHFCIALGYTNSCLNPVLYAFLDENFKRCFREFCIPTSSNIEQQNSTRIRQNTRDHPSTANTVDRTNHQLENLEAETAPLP
- assay: Antagonist activity at human mu-opioid receptor expressed in CHO cells assessed as inhibition of DAMGO-induced [35S]GTPgammaS binding after 60 mins by scintillation counting
1 (yes) if IC50 is below 9 nM. 0 (no) if not; exact matches included in 0 (no).

record smiles | group label
C=CCN1CC[C@]23c4c5ccc(OC(=O)CCCCCCCCC(=O)Oc6ccc7c(c6)[C@@]68CCCC[C@@]6(O)[C@@H](C7)N(CC6CCC6)CC8)c4O[C@H]2C(=O)CC[C@@]3(O)[C@H]1C5 | 0 (no)
CO[C@@]12CCCC[C@@]13CCN(CC1CCC1)[C@@H]2Cc1ccc(O)cc13 | 0 (no)
C=CCN1CC[C@]23c4c5ccc(OC(=O)CCCCCCCCC(=O)Oc6ccc7c(c6)[C@@]68CCCC[C@@]6(OC)[C@@H](C7)N(CC6CCC6)CC8)c4O[C@H]2C(=O)CC[C@@]3(O)[C@H]1C5 | 0 (no)
c1c2c(cc3sc(NCCCCCCCCCCNc4nc5cc6c(cc5s4)C[C@@H]4[C@@H]5CCCC[C@]65CCN4CC4CC4)nc13)C[C@@H]1[C@@H]3CCCC[C@]23CCN1CC1CC1 | 0 (no)
CO[C@@]12CCCC[C@@]13CCN(CC1CCC1)[C@@H]2Cc1ccc(OC(=O)CCCCCCCCC(=O)OCc2ccccc2)cc13 | 1 (yes)

Hello, is IC50 of the following compound strictly smaller than 9 nM? `O=C(CCCCCCCCC(=O)Oc1ccc2c(c1)[C@@]13CCCC[C@@]1(O)[C@@H](C2)N(CC1CCC1)CC3)Oc1ccc2c(c1)[C@@]13CCCC[C@H]1[C@@H](C2)N(CC1CCC1)CC3`
1 (yes)

Would you kindly repeat that for `CO[C@@]12CCCC[C@@]13CCN(CC1CCC1)[C@@H]2Cc1ccc(OC(=O)CCCCCCCCC(=O)Oc2ccc4c(c2)[C@@]25CCCC[C@@]2(OC)[C@@H](C4)N(CC2CCC2)CC5)cc13` ?
0 (no)

* * *

- experimental system: Kappa-type opioid receptor (Homo sapiens)
- assay: Agonist activity at human kappa-opioid receptor expressed in CHO cells assessed as stimulation of [35S]GTPgammaS binding after 60 mins by scintillation counting
quantity measured: pEC50
The value called pEC50 is obtained by taking minus log10 of the concentration in mol/L.

record smiles | pEC50
c1c2c(cc3sc(NCCCCCCCCCCNc4nc5cc6c(cc5s4)C[C@@H]4[C@@H]5CCCC[C@]65CCN4CC4CC4)nc13)C[C@@H]1[C@@H]3CCCC[C@]23CCN1CC1CC1 | 8.14
CO[C@@]12CCCC[C@@]13CCN(CC1CCC1)[C@@H]2Cc1ccc(OC(=O)CCCCCCCCC(=O)OCc2ccccc2)cc13 | 8.68
CO[C@@]12CCCC[C@@]13CCN(CC1CCC1)[C@@H]2Cc1ccc(O)cc13 | 8.55

Query (compound): `CO[C@@]12CCCC[C@@]13CCN(CC1CCC1)[C@@H]2Cc1ccc(OC(=O)CCCCCCCCC(=O)Oc2ccc4c(c2)[C@@]25CCCC[C@@]2(OC)[C@@H](C4)N(CC2CCC2)CC5)cc13` ; field requested: pEC50
8.62

Consider next the compound `O=C(CCCCCCCCC(=O)Oc1ccc2c(c1)[C@@]13CCCC[C@@]1(O)[C@@H](C2)N(CC1CCC1)CC3)Oc1ccc2c(c1)[C@@]13CCCC[C@H]1[C@@H](C2)N(CC1CCC1)CC3` in the same way.
9.08

Can you check `C=CCN1CC[C@]23c4c5ccc(OC(=O)CCCCCCCCC(=O)Oc6ccc7c(c6)[C@@]68CCCC[C@@]6(OC)[C@@H](C7)N(CC6CCC6)CC8)c4O[C@H]2C(=O)CC[C@@]3(O)[C@H]1C5` next?
7.74

Moving on to the next compound: `C=CCN1CC[C@]23c4c5ccc(OC(=O)CCCCCCCCC(=O)Oc6ccc7c(c6)[C@@]68CCCC[C@@]6(O)[C@@H](C7)N(CC6CCC6)CC8)c4O[C@H]2C(=O)CC[C@@]3(O)[C@H]1C5`
7.92

Try this compound next: `O=C(CCCCCCCCC(=O)Nc1nc2cc3c(cc2s1)C[C@@H]1[C@@H]2CCCC[C@]32CCN1CC1CC1)Nc1nc2cc3c(cc2s1)C[C@@H]1[C@@H]2CCCC[C@]32CCN1CC1CC1`
8.26
